Assayed System: Ubiquitin carboxyl-terminal hydrolase 1 (Homo sapiens) (UniProt O94782)
Sequence (O94782 whole entry, looked up): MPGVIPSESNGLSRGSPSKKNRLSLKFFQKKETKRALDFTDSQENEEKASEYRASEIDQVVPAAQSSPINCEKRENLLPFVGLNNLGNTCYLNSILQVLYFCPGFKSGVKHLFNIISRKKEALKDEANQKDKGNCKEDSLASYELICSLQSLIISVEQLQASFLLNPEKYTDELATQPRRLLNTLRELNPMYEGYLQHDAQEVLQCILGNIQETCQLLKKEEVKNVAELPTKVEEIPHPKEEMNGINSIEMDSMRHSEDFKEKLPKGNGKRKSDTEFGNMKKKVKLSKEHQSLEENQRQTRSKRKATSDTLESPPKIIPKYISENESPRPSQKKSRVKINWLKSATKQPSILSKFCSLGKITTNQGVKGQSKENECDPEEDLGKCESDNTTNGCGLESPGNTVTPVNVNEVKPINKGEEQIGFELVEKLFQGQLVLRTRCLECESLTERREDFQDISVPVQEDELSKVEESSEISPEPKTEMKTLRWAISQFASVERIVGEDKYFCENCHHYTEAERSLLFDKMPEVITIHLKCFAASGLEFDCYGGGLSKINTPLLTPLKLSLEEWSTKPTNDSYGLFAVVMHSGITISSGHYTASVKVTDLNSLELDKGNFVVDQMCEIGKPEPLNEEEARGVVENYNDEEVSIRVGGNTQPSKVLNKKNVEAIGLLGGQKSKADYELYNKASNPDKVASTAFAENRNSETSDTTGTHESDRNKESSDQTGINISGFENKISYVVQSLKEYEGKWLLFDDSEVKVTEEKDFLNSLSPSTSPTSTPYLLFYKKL
Assay Overview: Inhibitors of USP1/UAF1: Pilot qHTS (AID 504865);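 further: rhodamine fluorescence freed from ubiquitin-rhodamine substrate followed over time; top concentration of the series differs between compounds; on the % scale 0 is the no-effect control and ±100 the full control effect; nearly all actives have a fitted effect of over 35% in size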
Condition Description: purified USP1/UAF1, Ub-rhodamine cleavage fluorescence; series mostly up to 114 µM
Inconclusive results are not listed. Active and inactive are the calls of the source. The call rests on the fitted dose curve; in most records, active means well fitted inhibition curve with a large enough effect; inconclusive means small, poorly fitted or top-dose-only effect; inactive means flat fitted curve, though single readings scatter.

- Compound: "NS(=O)(=O)c1cc2c(cc1Cl)NC(CSCc1ccccc1)=NS2(=O)=O"
  outcome: "inactive"
- Compound: "CN(C)CC[C@@H](c1ccc(Cl)cc1)c1ccccn1"
  outcome: "inactive"
- Compound: "COc1ccc2[nH]c(S(=O)Cc3ncc(C)c(OC)c3C)nc2n1 (stereo not drawn)"
  outcome: "inactive"

* * *

Assay Overview: qHTS Assay for Lipid Storage Modulators (AID 1519)
Condition Description: Drosophila S3 cells, BODIPY lipid droplet/cell ratio, laser cytometry; measured here: cell count channel max response; cells loaded with oleic acid
Inconclusive results are not listed.
# reported max response; entries follow

- Compound: "NS(=O)(=O)c1cc2c(cc1C(F)(F)F)NC(Cc1ccccc1)NS2(=O)=O (configuration not stated)"
  Unit Label: "%"
  max response: 6.37
- Compound: "OC[C@H]1O[C@@H](O[C@@H]2[C@@H](CO)O[C@](O)(CO)[C@H]2O)[C@H](O)[C@@H](O)[C@H]1O"
  Unit Label: "%"
  max response: -20.2
- Compound: "CCCCOC(=O)c1ccc(O)cc1"
  Unit Label: "%"
  max response: -1.21
- Compound: "NC(=O)N/N=C/c1ccc([N+](=O)[O-])o1"
  Unit Label: "%"
  max response: -6.33
- Compound: "Cc1cc(N)c2ccccc2[n+]1CCCCCCCCCC[n+]1c(C)cc(N)c2ccccc21"
  Unit Label: "%"
  max response: -7.09
- Compound: "C=Cc1c(C)c2cc3[nH]c(cc4nc(cc5nc(cc1[nH]2)C(C)=C5CCC(=O)O)C(CCC(=O)O)=C4C)c(C)c3C=C"
  Unit Label: "%"
  max response: 1.69
- Compound: "C[C@](N)(Cc1ccc(O)cc1)C(=O)O"
  Unit Label: "%"
  max response: 7.9

* * *

Test system: CAOV3
Assay Overview: Primary qHTS to identify gynecologic anti-cancer compounds using libraries of approved drugs and bioactive compounds (AID 1345084); further: nearly all actives have a fitted effect of over 55% in size
Condition Description: Gynecologic cancer cell panel viability, ATPlite luminescence, 48 h; series mostly up to 57.5 µM
Inconclusive results are not listed. Calls of active or inactive are those of the source. Calls follow the shape of the dose curve; as a rule, active = well fitted cell-killing curve with a large enough effect; inconclusive = small, poorly fitted or top-dose-only effect, or effect the other way; inactive = flat fitted curve, though single readings scatter.
Classes used: active, inactive

- Compound: "OCC(CO)N[C@H]1C[C@](O)(CO)[C@@H](O)[C@H](O)[C@H]1O"
  Assayed System: "CAOV3"
  Answer Label: "inactive"
- Compound: "O=C1NS(=O)(=O)c2ccccc21"
  Assayed System: "CAOV3"
  Answer Label: "inactive"
- Compound: "CC(=O)CCC(=O)O"
  Assayed System: "CAOV3"
  Answer Label: "inactive"
- Compound: "COc1cc2[nH]c(=O)[nH]c(=O)c2cc1OC"
  Assayed System: "CAOV3"
  Answer Label: "inactive"
- Compound: "CCCCOC(=O)c1ccc(O)cc1"
  Assayed System: "CAOV3"
  Answer Label: "inactive"
- Compound: "N[C@H]1C(O)O[C@H](CO)[C@@H](O)[C@@H]1O (stereo partly drawn)"
  Assayed System: "CAOV3"
  Answer Label: "inactive"
- Compound: "C#CCN(C)Cc1ccccc1"
  Assayed System: "CAOV3"
  Answer Label: "inactive"
- Compound: "Nc1ncnc2c1ncn2[C@@H]1O[C@H](CO)[C@@H](O)[C@H]1O"
  Assayed System: "CAOV3"
  Answer Label: "inactive"
- Compound: "Cc1cc(C(C#N)c2ccc(Cl)cc2)c(Cl)cc1NC(=O)c1cc(I)cc(I)c1O (stereo not drawn)"
  Assayed System: "CAOV3"
  Answer Label: "inactive"
- Compound: "O=C(O)CC(O)C(=O)O (stereo not drawn)"
  Assayed System: "CAOV3"
  Answer Label: "inactive"
- Compound: "Cc1cc(N)c2ccccc2[n+]1CCCCCCCCCC[n+]1c(C)cc(N)c2ccccc21"
  Assayed System: "CAOV3"
  Answer Label: "active"
- Compound: "CCOC(CN1CCN(CC(C)C(=O)c2ccccc2)CC1)c1ccccc1 (stereo not drawn)"
  Assayed System: "CAOV3"
  Answer Label: "inactive"
- Compound: "C[C@@H]1CN(c2c(F)c(F)c3c(=O)c(C(=O)O)cn(C4CC4)c3c2F)C[C@H](C)N1"
  Assayed System: "CAOV3"
  Answer Label: "inactive"
- Compound: "O=C1N=C(O)CN1/N=C/c1ccc(-c2ccc([N+](=O)[O-])cc2)o1"
  Assayed System: "CAOV3"
  Answer Label: "inactive"
- Compound: "CC[C@@]1(c2ccccc2)NC(=O)N(C)C1=O"
  Assayed System: "CAOV3"
  Answer Label: "inactive"
- Compound: "COc1cc(C)c(Cc2cnc(N)nc2N)cc1OC"
  Assayed System: "CAOV3"
  Answer Label: "inactive"
- Compound: "O=C(O)CN1C(=O)c2cccc3cccc(c23)C1=O"
  Assayed System: "CAOV3"
  Answer Label: "inactive"
- Compound: "CCn1cc(C(=O)O)c(=O)c2cnc(N3CCNCC3)nc21"
  Assayed System: "CAOV3"
  Answer Label: "inactive"
- Compound: "COC(=O)[C@H]1[C@H]2C[C@@H]3c4[nH]c5cc(OC)ccc5c4CCN3C[C@H]2C[C@@H](OC(=O)COc2ccc(OC)cc2)[C@@H]1OC"
  Assayed System: "CAOV3"
  Answer Label: "inactive"
- Compound: "CN1CCOC(c2ccccc2)c2ccccc2C1 (stereo not drawn)"
  Assayed System: "CAOV3"
  Answer Label: "inactive"
- Compound: "COc1ccccc1O"
  Assayed System: "CAOV3"
  Answer Label: "inactive"
- Compound: "CCC(=O)Nc1ccc(O)cc1"
  Assayed System: "CAOV3"
  Answer Label: "inactive"
- Compound: "OCCN1CCN(CCCN2c3ccccc3Sc3ccc(Cl)cc32)CC1"
  Assayed System: "CAOV3"
  Answer Label: "active"
- Compound: "CS(=O)(=O)c1ccc([C@@H](O)[C@@H](CF)NC(=O)C(Cl)Cl)cc1"
  Assayed System: "CAOV3"
  Answer Label: "inactive"
- Compound: "Nc1cc(=O)[nH]c(N)n1"
  Assayed System: "CAOV3"
  Answer Label: "inactive"
- Compound: "CN(C)CC[C@@H](c1ccc(Cl)cc1)c1ccccn1"
  Assayed System: "CAOV3"
  Answer Label: "inactive"
- Compound: "CC(C)c1c(C(=O)Nc2ccccc2)c(-c2ccccc2)c(-c2ccc(F)cc2)n1CC[C@@H](O)C[C@@H](O)CC(=O)O"
  Assayed System: "CAOV3"
  Answer Label: "inactive"
- Compound: "C[C@]12CC[C@@H]3c4ccc(O)cc4CC[C@H]3[C@@H]1CCC2=O"
  Assayed System: "CAOV3"
  Answer Label: "inactive"
- Compound: "c1ccc(CN(CC2=NCCN2)c2ccccc2)cc1"
  Assayed System: "CAOV3"
  Answer Label: "inactive"
- Compound: "C[C@H]1O[C@@H](n2cc(F)c(=O)[nH]c2=O)[C@H](O)[C@@H]1O"
  Assayed System: "CAOV3"
  Answer Label: "inactive"
- Compound: "CN(C)CCCN1c2ccccc2CCc2ccccc21"
  Assayed System: "CAOV3"
  Answer Label: "inactive"
- Compound: "Cc1cc(CC(=O)O)n(C)c1C(=O)c1ccc(Cl)cc1"
  Assayed System: "CAOV3"
  Answer Label: "inactive"
- Compound: "CO/N=C(\\C(=O)N[C@@H]1C(=O)N2C(C(=O)O)=C(CSc3nc(=O)c(O)nn3C)CS[C@H]12)c1csc(N)n1"
  Assayed System: "CAOV3"
  Answer Label: "inactive"
- Compound: "CN(C)CCOC(C)(c1ccccc1)c1ccccn1 (stereo not drawn)"
  Assayed System: "CAOV3"
  Answer Label: "inactive"
- Compound: "OCc1cc(C(O)CNCCCCCCOCCCCc2ccccc2)ccc1O (stereo not drawn)"
  Assayed System: "CAOV3"
  Answer Label: "active"
- Compound: "COc1ccc(S(=O)(=O)Nc2nnc(CC(C)C)s2)cc1"
  Assayed System: "CAOV3"
  Answer Label: "inactive"
- Compound: "CC1CC(OC(=O)C(O)c2ccccc2)CC(C)(C)N1C (stereo not drawn)"
  Assayed System: "CAOV3"
  Answer Label: "inactive"
- Compound: "CC1(C)[C@@H]2CC[C@@]1(C)C(=O)C2"
  Assayed System: "CAOV3"
  Answer Label: "inactive"
- Compound: "CC(=O)OCC(=O)[C@@]1(O)CC[C@H]2[C@@H]3CCC4=CC(=O)CC[C@]4(C)[C@H]3C(=O)C[C@@]21C"
  Assayed System: "CAOV3"
  Answer Label: "inactive"
- Compound: "CC(O)CN(CCN(CC(C)O)CC(C)O)CC(C)O (stereo not drawn)"
  Assayed System: "CAOV3"
  Answer Label: "inactive"
- Compound: "O=c1cc(CO)occ1O"
  Assayed System: "CAOV3"
  Answer Label: "inactive"
- Compound: "CC(C(O)c1ccc(O)cc1)N1CCC(Cc2ccccc2)CC1 (stereo not drawn)"
  Assayed System: "CAOV3"
  Answer Label: "inactive"
- Compound: "Cc1ncc([N+](=O)[O-])n1CC(O)CCl (stereo not drawn)"
  Assayed System: "CAOV3"
  Answer Label: "inactive"
- Compound: "CCCCN1CCCC[C@H]1C(=O)Nc1c(C)cccc1C"
  Assayed System: "CAOV3"
  Answer Label: "inactive"
- Compound: "O=C1Nc2ccc(Cl)cc2[C@@](C#CC2CC2)(C(F)(F)F)O1"
  Assayed System: "CAOV3"
  Answer Label: "inactive"
- Compound: "CCN(CC)CCNC(C(=O)OCCC(C)C)c1ccccc1 (stereo not drawn)"
  Assayed System: "CAOV3"
  Answer Label: "inactive"
- Compound: "CCN(CC)C(C)CN1c2ccccc2Sc2ccccc21 (stereo not drawn)"
  Assayed System: "CAOV3"
  Answer Label: "inactive"
- Compound: "Cc1cccc(Nc2cc(Cl)nc(SCC(=O)O)n2)c1C"
  Assayed System: "CAOV3"
  Answer Label: "inactive"

Data credit: PubChem BioAssay (NCATS)
